# Test system: Johnsongrass
# Assay name: post-emergent herbicidal activity, greenhouse
# Assay type: in vivo
# Measurement conditions: Table I, 4 WAT, 5.6 kg/h
Reported post-emergent herbicidal activity index by item:

Completed entries (count: 6):
| Molecule | Observation type | Result |
| --- | --- | --- |
| CCOC(=O)CNCP(=O)(OC(C)C(=O)OCC)OC(C)C(=O)OCC (stereo not shown) | post-emergent herbicidal activity index | 0 (0-24% control) |
| CCOCCOC(=O)CNCP(=O)(O)OC(C)C#N (stereo not shown) | post-emergent herbicidal activity index | 4 (100% control) |
| CCOC(=O)CNCP(=O)(O)OCC(Cl)(Cl)Cl | post-emergent herbicidal activity index | 2 (50-74% control) |
| CCOC(=O)CNCP(=O)(OCCN1CCCC1)OCCN1CCCC1 | post-emergent herbicidal activity index | 1 (25-49% control) |
| CCOC(=O)CNCP(=O)(OC(C)C#N)OC(C)C#N (stereo not shown) | post-emergent herbicidal activity index | 3 (75-99% control) |
| CCOC(=O)CNCP(=O)(O)OC(C)CC(=O)OCC (stereo not shown) | post-emergent herbicidal activity index | 1 (25-49% control) |

Problem: Bench note: what post-emergent herbicidal activity index did CC(C#N)OP(=O)(O)CNCC(=O)OCc1ccccc1 (stereo not shown) show?
Result: 0 (0-24% control)

Problem: Bench note: what post-emergent herbicidal activity index did `CCOC(=O)CNCP(=O)(OCCSC(=O)OCC)OCCSC(=O)OCC` show?
Result: 1 (25-49% control)

Problem: Bench note: what post-emergent herbicidal activity index did CCCCCOC(=O)CNCP(=O)(O)OC(C)C#N (stereo not shown) [Example 6, hemihydrate] show?
Result: 1 (25-49% control)

Problem: Bench note: what post-emergent herbicidal activity index did CC(C#N)OP(=O)(CNCC#N)OC(C)C#N (stereo not shown) show?
Result: 4 (100% control)

* * *

# Tested on: Soybean
# Assay name: post-emergent herbicidal activity, greenhouse
# Format: in vivo
# Measurement conditions: Table II, 4 WAT, 1.12 kg/h
Reported post-emergent herbicidal activity index by item:

Completed entries (count: 3):
| Compound | Experimental target | Observation type | Result |
| --- | --- | --- | --- |
| CCOC(=O)CNCP(=O)(OCCN1CCCC1)OCCN1CCCC1 | Soybean | post-emergent herbicidal activity index | 0 (0-24% control) |
| CCOC(=O)CNCP(=O)(OC(C)C#N)OC(C)C#N (stereo not shown) | Soybean | post-emergent herbicidal activity index | 2 (50-74% control) |
| CCCCCOC(=O)CNCP(=O)(O)OC(C)C#N (stereo not shown) [Example 6, hemihydrate] | Soybean | post-emergent herbicidal activity index | 2 (50-74% control) |

Problem: Bench note: what post-emergent herbicidal activity index did `CCOC(=O)CNCP(=O)(O)OCC(Cl)(Cl)Cl` show?
Result: 2 (50-74% control)

Problem: Bench note: what post-emergent herbicidal activity index did CCOC(=O)CNCP(=O)(O)OC(C)C#N (stereo not shown) show?
Result: 2 (50-74% control)

Problem: Bench note: what post-emergent herbicidal activity index did CCOCCOC(=O)CNCP(=O)(O)OC(C)C#N (stereo not shown) show?
Result: 3 (75-99% control)

* * *

# Tested on: Sorghum
# Assay name: post-emergent herbicidal activity, greenhouse
# Assay type: in vivo
# Measurement conditions: Table II, 4 WAT, 5.6 kg/h
Reported post-emergent herbicidal activity index by item:

| Compound | Result |
| --- | --- |
| CCOC(=O)CNCP(=O)(O)OC(C#N)CC (stereo not drawn) [Example 8] | 4 (100% control) |
| CC(C#N)OP(=O)(CNCC#N)OC(C)C#N (stereo not drawn) [Example 12] | 4 (100% control) |

Now examine the next entry.
Problem: Bench note: what post-emergent herbicidal activity index did CCCCCOC(=O)CNCP(=O)(O)OC(C)C#N (stereo not drawn) [Example 6, hemihydrate] show?
Result: 4 (100% control)

* * *

# Test system: Smartweed
# Assay name: post-emergent herbicidal activity, greenhouse
# Type: in vivo
# Measurement conditions: Table II, 4 WAT, 0.28 kg/h
Observation type: post-emergent herbicidal activity index

| Compound | Result |
| --- | --- |
| CC(C#N)OP(=O)(O)CNCC(=O)OCCCl (stereo not shown) | 4 (100% control) |

Problem: Bench note: what post-emergent herbicidal activity index did CC(C#N)OP(=O)(O)CNCC(=O)OCc1ccccc1 (stereo not shown) show?
Result: 4 (100% control)

Problem: Bench note: what post-emergent herbicidal activity index did CCOCCOC(=O)CNCP(=O)(O)OC(C)C#N (stereo not shown) show?
Result: 2 (50-74% control)

Problem: Bench note: what post-emergent herbicidal activity index did CCOC(=O)CNCP(=O)(O)OC(C)C#N (stereo not shown) show?
Result: 2 (50-74% control)

Problem: Bench note: what post-emergent herbicidal activity index did `CCOC(=O)CNCP(=O)(O)OCC(Cl)(Cl)Cl` show?
Result: 3 (75-99% control)

Problem: Bench note: what post-emergent herbicidal activity index did CCOC(=O)CNCP(=O)(OC(C)C#N)OC(C)C#N (stereo not shown) show?
Result: 0 (0-24% control)

Problem: Bench note: what post-emergent herbicidal activity index did CCCCCOC(=O)CNCP(=O)(O)OC(C)C#N (stereo not shown) [Example 6, hemihydrate] show?
Result: 1 (25-49% control)

* * *

# Tested on: Panicum Spp
# Assay name: post-emergent herbicidal activity, greenhouse
# Format: in vivo
# Measurement conditions: Table II, 4 WAT, 0.28 kg/h
Reported post-emergent herbicidal activity index by item:

| Compound | post-emergent herbicidal activity index |
| --- | --- |
| CCCCCOC(=O)CNCP(=O)(O)OC(C)C#N (stereo not shown) [Example 6, hemihydrate] | 4 (100% control) |
| CCOC(=O)CNCP(=O)(O)OC(C)C#N (stereo not shown) | 3 (75-99% control) |
| CCOCCOC(=O)CNCP(=O)(O)OC(C)C#N (stereo not shown) | 4 (100% control) |
| CCOC(=O)CNCP(=O)(OC(C)C#N)OC(C)C#N (stereo not shown) | 2 (50-74% control) |
| CC(C#N)OP(=O)(O)CNCC(=O)OCCCl (stereo not shown) | 3 (75-99% control) |
| CC(C#N)OP(=O)(O)CNCC(=O)OCc1ccccc1 (stereo not shown) | 3 (75-99% control) |

Problem: Bench note: what post-emergent herbicidal activity index did `CCOC(=O)CNCP(=O)(O)OCC(Cl)(Cl)Cl` show?
Result: 3 (75-99% control)

* * *

# Test system: Soybean
# Assay name: post-emergent herbicidal activity, greenhouse
# Type: in vivo
# Measurement conditions: Table II, 4 WAT, 5.6 kg/h
Reported post-emergent herbicidal activity index by item:

| Compound | Result |
| --- | --- |
| CCOC(=O)CNCP(=O)(O)OC(C)C#N (stereo not shown) | 4 (100% control) |

Problem: Bench note: what post-emergent herbicidal activity index did CC(C#N)OP(=O)(O)CNCC(=O)OCc1ccccc1 (stereo not shown) show?
Result: 3 (75-99% control)

Problem: Bench note: what post-emergent herbicidal activity index did CC(C#N)OP(=O)(O)CNCC(=O)OCCCl (stereo not shown) show?
Result: 3 (75-99% control)

Problem: Bench note: what post-emergent herbicidal activity index did CCOC(=O)CNCP(=O)(OC(C)C#N)OC(C)C#N (stereo not shown) show?
Result: 4 (100% control)

Problem: Bench note: what post-emergent herbicidal activity index did CCOC(=O)CNCP(=O)(OC(C)CC(=O)OCC)OC(C)CC(=O)OCC (stereo not shown) show?
Result: 1 (25-49% control)

Problem: Bench note: what post-emergent herbicidal activity index did CCOC(=O)CNCP(=O)(O)OC(C)C(=O)OC (stereo not shown) show?
Result: 1 (25-49% control)

Problem: Bench note: what post-emergent herbicidal activity index did CCOC(=O)CNCP(=O)(OCC1COC(C)(C)O1)OCC1COC(C)(C)O1 (stereo not shown) show?
Result: 0 (0-24% control)

Problem: Bench note: what post-emergent herbicidal activity index did `CCOC(=O)CNCP(=O)(O)OCC(Cl)(Cl)Cl` show?
Result: 3 (75-99% control)

Problem: Bench note: what post-emergent herbicidal activity index did CC(C#N)OP(=O)(CNCC#N)OC(C)C#N (stereo not shown) show?
Result: 1 (25-49% control)

Problem: Bench note: what post-emergent herbicidal activity index did `CCOC(=O)CNCP(=O)(OCCN1CCCC1)OCCN1CCCC1` show?
Result: 2 (50-74% control)

Problem: Bench note: what post-emergent herbicidal activity index did CCOC(=O)CNCP(=O)(O)OC(C#N)CC (stereo not shown) show?
Result: 4 (100% control)

Problem: Bench note: what post-emergent herbicidal activity index did CCCCCOC(=O)CNCP(=O)(O)OC(C)C#N (stereo not shown) [Example 6, hemihydrate] show?
Result: 4 (100% control)

Problem: Bench note: what post-emergent herbicidal activity index did CCOCCOC(=O)CNCP(=O)(O)OC(C)C#N (stereo not shown) show?
Result: 4 (100% control)
